# measured on: T1, CXC chemokine receptor 4 (CXCR4) on lentiviral particles (UniProt P61073 1-352)
# T1 construct: also called CXCR4-expressing LVPs
# measurement protocol: SPR; CXCR4 lentiviral particles (8000-8500 RU) immobilised on a CM5 chip; CXCL12 or CXCL14 12.5-200 nM injected in HBS (100 mM HEPES, 150 mM NaCl, 0.005% P20, pH 7.4), 30 ul/min, 25°C; reference: particles from CXCR4-negative cells or none; simple 1-site model; Biacore 3000
# measurement parameters: one partner purified
recorded metric: Kd (nM)

* CXC chemokine ligand 14 (CXCL14), synthetic (ligand, human, UniProt O95715 35-111, looked up, source: chemically synthesized) SKCKCSRKGPKIRYSDVKKLEMKPKYPHCEEKMVIITTKSVSRYRGQEHCLHPKLQSTKRFIKWYNAWNEKRRVYEE | 8

Values were extracted from paper PMC5472405.
